Please provide measured TGI for the entries that follow.
Tested on: CCRF-CEM leukemia
Assay: NCI tumour cell line growth inhibition, 48 h
Answers are plain numbers, in µM.

Recorded results for 3 molecules are shown here.
molecule: CN(C)CCCNc1ccc2ncn3c4ccccc4c(=O)c1c23
obs.value: 23.4
--
molecule: COc1ccc(N=c2ssc3c(=S)ssc23)cc1
obs.value: 28.2
--
molecule: O=C(c1ccccc1)c1ccc(COc2ccc(C(c3c(O)c4ccccc4oc3=O)c3c(O)c4ccccc4oc3=O)cc2)cc1
obs.value: 16.4

I have 7 molecules here; please give me TGI for each one.
1. COC(=O)C1=CSC2(S1)C(C(=O)OC)=CSc1c2ssc1=Nc1ccccc1 (stereo not given)
2. Cc1cc(=O)[nH]c(NN2C(Cl)C(=O)C2c2ccc(Cl)cc2)n1 (stereo not given)
3. CCN=C1C=CC(=C(c2ccc(N)cc2)c2ccc(N(CC)CC)c(C)c2)C=C1
4. O=C(C1CCCCC1)[C@@H]1[C@]2(C(=O)NC3CCCCC32)[C@@H]2CCCN2[C@@]12C(=O)NC1CCC(Cl)CC12 (stereo not given in full)
5. O=C1c2c(c3c4ccccc4[nH]c3c3ccc4ccccc4c23)C(=O)N1CCN1CCCCC1
6. C[C@]12CC[C@H]3[C@@H](CCC4=CC(=O)CC[C@@H]43)[C@@H]1CC[C@@H]2OC(=O)CCc1ccccc1
7. O=C(c1ccccc1)C(CN1CCOCC1)c1ccccc1 (stereo not given)

[7.96, 5.67, 5.35, 137, 11.3, 43.5, 1.19]
